- TEST SYSTEM: T1, recombinant human PAD4 (human, UniProt Q9UM07 1-663)
- T1 construct: also called rhPAD4; hPAD4
- T1 sequence (Q9UM07 whole entry): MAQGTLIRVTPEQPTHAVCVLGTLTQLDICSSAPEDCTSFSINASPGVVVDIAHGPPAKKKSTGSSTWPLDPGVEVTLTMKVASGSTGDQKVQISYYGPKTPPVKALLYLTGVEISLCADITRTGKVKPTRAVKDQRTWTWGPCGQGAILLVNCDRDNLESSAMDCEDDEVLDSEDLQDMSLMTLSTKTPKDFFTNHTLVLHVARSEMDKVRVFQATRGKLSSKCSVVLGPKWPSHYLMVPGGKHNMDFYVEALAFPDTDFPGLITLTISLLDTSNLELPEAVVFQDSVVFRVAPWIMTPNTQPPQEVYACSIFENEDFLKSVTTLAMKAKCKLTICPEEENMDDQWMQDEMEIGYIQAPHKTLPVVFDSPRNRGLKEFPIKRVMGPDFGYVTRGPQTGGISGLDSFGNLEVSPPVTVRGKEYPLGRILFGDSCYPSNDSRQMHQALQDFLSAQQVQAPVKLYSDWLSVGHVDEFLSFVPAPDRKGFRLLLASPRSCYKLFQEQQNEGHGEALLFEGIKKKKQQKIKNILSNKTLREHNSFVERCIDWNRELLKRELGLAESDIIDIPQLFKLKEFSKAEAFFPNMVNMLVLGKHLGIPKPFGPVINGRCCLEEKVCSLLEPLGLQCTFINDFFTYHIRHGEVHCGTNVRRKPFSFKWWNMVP
- METHOD: SPR 37 C, captured antibody, PAD4 analyte, 1 mM CaCl2
REPORTED METRIC: Kd (nM)

BINDER	ASSAY VALUE
hz20-10 (antibody, V domains shown, light constant region not tied to this antibody) VH: QVQLVQSGAEVKKPGASVKVSCKASGYTFTNYGISWVRQAPGQGLEWMGEIYPRSGNTYHNEKFKDRVTMTTDKSTSTAYMELRSLRSDDTAVYYCARSMITTRYWYFDVWGKGTTVTVSS VL: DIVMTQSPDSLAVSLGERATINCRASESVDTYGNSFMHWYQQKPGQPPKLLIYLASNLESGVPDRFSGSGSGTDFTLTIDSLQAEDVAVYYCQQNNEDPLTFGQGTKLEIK	0.3
hz13-10 (antibody, V domains shown, light constant region not tied to this antibody) VH: EVQLVQSGAEVKKPGATVKISCKVSDFNIKDHFIHWVQQAPGKGLEWMGRIDPEDDETKYAPKFQDRVTITADTSTDTAYMELSSLRSEDTAVYYCAGYGNYEGAMDYWGQGTTVTVSS VL: DVVMTQSPLSLPVTLGQPASISCRASENVNNYGIGFMNWFQQRPGQSPRLLIYAASRRGSGVPDRFSGSGSGTDFTLKISRVEEEDVGVYYCQQSKEVPYTFGGGTKVEIK	0.1
hz20-5 (antibody, V domains shown, light constant region not tied to this antibody) VH: QVQLVQSGAEVKKPGASVKVSCKASGYTFTNYGISWVRQRPGQGLEWIGEIYPRSGNTYHNEKFKDRVTMTADTSTSTVYMELSSLRSEDTAVYYCARSMITTRYWYFDVWGKGTTVTVSS VL: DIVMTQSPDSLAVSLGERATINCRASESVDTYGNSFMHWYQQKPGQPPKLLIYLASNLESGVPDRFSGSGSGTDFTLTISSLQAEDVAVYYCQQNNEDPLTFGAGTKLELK	1.9
